Data credit: PubChem BioAssay (EPA / NIEHS)

Read-out: matrix metalloproteinase-3 (MMP3), MMP3 (gene 4314)
method_summary: LTEA_HepaRG_MMP3: Life Technologies and Expression Analysis (LTEA) Assay for matrix metalloproteinase-3 (MMP3) using HepaRG (AID 2283519)
experimental_parameters: mRNA level, 48 h; actives raise or lower the signal
Protocol: LTEA_HepaRG is a cell based, multiplexed-readout assay that uses HepaRG, a human liver cell line, with measurements taken at 48 hours after chemical dosing on a 96-well plate.LTEA_HepaRG_MMP3 is one of 102 assay component(s) measured in the LTEA HepaRG cell culture assay. It is a marker of Fibrosis.Data from the assay component LTEA_HepaRG_MMP3 was analyzed into 1 endpoint. […]
Active and inactive are the calls of the source. Rule for the calls: active = hit-call score of the fitted dose curve at least 0.9, where 1 is the maximum; inactive = score below 0.9.
Outcomes you can answer with include only these: active, inactive

# fetch the recorded call for CCN(CC)CCO here inactive

Dear colleague, could you share the recorded outcome for CO[C@@H]1[C@H](OC(=O)NC(=O)CCl)CC[C@]2(CO2)[C@H]1[C@@]1(C)O[C@@H]1CC=C(C)C when you have a moment? inactive

How was C1=Cc2cccc3cccc1c23 classified in this test? inactive

Look up the recorded call for C[N+](C)(C)CC1CO1 (stereo not given) in this test. inactive

# lookup: test call for Clc1ccc(Cl)c(Cl)c1 inactive

Dear all, I need the recorded test outcome for CS(=O)(=O)NC(=O)c1cc(Oc2ccc(C(F)(F)F)cc2Cl)ccc1[N+](=O)[O-] , thank you. inactive

Could you check what this test reported for ClCCOCCCl ? inactive

What was the test verdict on CCCSC(=O)N(CCC)CCC ? inactive

Identify the outcome logged in this assay for the compound shown: Cc1cc(N=Nc2ccccc2C)ccc1N active

Would you mind telling me which call this test gave CN(C)c1ccccc1 ? inactive

What did this assay record as the result for OCCCl ? inactive

Could you please tell me the result logged for CCCCC(CC)COC(=O)c1ccc(C(=O)OCC(CC)CCCC)c(C(=O)OCC(CC)CCCC)c1 (stereo not given) in this assay? inactive

Could you please tell me the result logged for CC(C)(C)C(O)(CCc1ccc(Cl)cc1)Cn1cncn1 (stereo not given) in this assay? inactive

Just curious, what result did COc1cc(C=O)cc2c1[C@H](COC(N)=O)[C@]1(OC(C)=O)ON2C[C@H]2[C@@H]1N2C(C)=O get here? active

Returns: the outcome recorded for CCN(CC)N=O in this assay. inactive

Entry CN(C)C(=O)Nc1ccc(Cl)cc1 : call = ? inactive

Hi team, can someone confirm the assay call for c1ccc(C2CO2)cc1 (stereo not given) ? inactive

Give the logged outcome of this assay for the following compound: CCC12COCN1COC2 inactive

Any idea what this test logged for CCCCCCCCOC(=O)c1ccc(C(=O)OCCCCCCCC)c(C(=O)OCCCCCCCC)c1 ? inactive

Dear colleague, could you share the recorded outcome for ClC1=C(Cl)[C@]2(Cl)[C@H]3[C@H]([C@@H]4C=C[C@H]3C4)[C@@]1(Cl)C2(Cl)Cl when you have a moment? inactive

Outcome? CC(C)(C)OOC(C)(C)CCC(C)(C)OOC(C)(C)C inactive

Recorded test call requested for N#CC(Br)Br inactive

Each compound tested received a call. Report the one for Oc1ccc2ccc3cccc4ccc1c2c34 . inactive

Outcome? Cc1ccc(N)cc1 inactive

What did this assay record as the result for Nc1ccc([N+](=O)[O-])cc1 ? inactive

Per the assay record, what outcome was assigned to O=C(O)C1C2CCC(O2)C1C(=O)O (stereo not given) ? active

# fetch the recorded call for Cc1ccc(N)c(N)c1 here inactive

# outcome recorded in this test, key = CCCCCCCCCCCCCN1CC(C)OC(C)C1 (stereo not given) inactive

Please indicate how the test categorized CN(C)c1ccc(C(=O)c2ccc(N(C)C)cc2)cc1 . inactive

Could you check what this test reported for CC(C)COC(=O)c1ccccc1C(=O)OCC(C)C ? inactive

Identify the outcome logged in this assay for the compound shown: CC(C)(OOC(C)(C)c1ccccc1)c1ccccc1 inactive

Please state the recorded outcome for this compound: O=C(N[C@H](c1ccccc1)[C@@H]1CN2CCC1CC2)c1c(Cl)ccc(C(F)(F)F)c1Cl active

Which outcome was assigned to O=C(Oc1ccc(Br)cc1)N1CCN2CCC1CC2 in this test? inactive

Could you please tell me the result logged for CNC(=O)Oc1cccc2c1OC(C)(C)C2 in this assay? inactive

What call does the record list for CCCCCOC(=O)c1ccccc1C(=O)OCCCCC ? inactive

What did the test return for Clc1ccccc1Cl ? inactive

Given ClC1=C(Cl)C2(Cl)C3C(Cl)C=CC3C1(Cl)C2(Cl)Cl (stereo not given) , state the outcome it received in this test. inactive

What did the test return for CC(C)(C)OOC(=O)c1ccccc1 ? inactive

Which outcome was entered for the compound COC(=O)c1ccccc1N in this test? inactive

Query: recorded result category for CC(O)CCO (stereo not given) in this test inactive

Returns: the outcome recorded for [Cl-].[Cl-].[Hg+2] in this assay. inactive

Short answer needed: outcome of this test for N#CC(Br)(Br)C(N)=O ? inactive

Would you mind telling me which call this test gave CC(C)N(Cc1ccccc1)C(=O)C(C)(C)C ? inactive

Lab log entry: Cc1ccc([N+](=O)[O-])cc1 — outcome as called in the assay? inactive

# fetch the recorded call for c1ccc2c(c1)-c1cccc3cccc-2c13 here inactive

Tell me the assay call for Oc1ccccc1Cl please. inactive

Per the assay record, what outcome was assigned to O=C1CCCO1 ? active

Answer briefly: the call reported for CCOC(=O)[C@]1(c2ccccc2)Oc2ccccc2[C@@H]1N in this assay. active

Field: outcome | Entry: CCCCOC(=O)c1ccccc1C(=O)OCc1ccccc1 inactive

Kindly provide the recorded test outcome for the following compound: CCC(C)c1ccc(O)cc1 (stereo not given) inactive
